Just for reference, patent US20060247305A1 is where these values come from.

- target-desc: Bcl-2 recombinant His-fused soluble protein (Homo sapiens, UniProt P10415)
- Sequence (P10415 whole entry, the tested form may be a part): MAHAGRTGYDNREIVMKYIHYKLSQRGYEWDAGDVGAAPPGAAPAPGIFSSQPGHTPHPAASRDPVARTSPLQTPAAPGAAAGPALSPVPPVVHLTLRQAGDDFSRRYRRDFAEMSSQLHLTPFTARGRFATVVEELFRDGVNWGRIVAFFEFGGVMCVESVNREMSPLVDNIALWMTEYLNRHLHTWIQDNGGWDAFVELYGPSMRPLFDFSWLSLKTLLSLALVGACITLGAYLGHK
- assay-remarks: Bcl-2 fluorescence polarization-based competitive binding assay (Flu-Bid-21 peptide)
- experimental-parameters: FP assay, 0.120 μM Bcl-2, 0.010 μM Flu-Bid-21, 4 hours incubation; Ki calculated from IC50; read-out: Binding Affinity Ki (μM) Bc1-2
Each record is given YES if its reported Ki is strictly below 0.8 µM. Records at or above 0.8 µM are given NO.

{"columns": ["molecule", "assigned-category"],
 "data": [
  ["Cc1oc2c(CC(C)C)c(O)c(O)c(O)c2c(=O)c1-c1ccc2ccccc2c1 [Compound 15c]", "YES"],
  ["Cc1oc2c(CC(C)C)c(O)c(O)c(O)c2c(=O)c1-c1ccc2c(C)c(O)ccc2c1 [Compound 15a]", "YES"],
  ["Cc1oc2c(CC(C)C)c(O)c(O)c(O)c2c(=O)c1-c1ccc2cc(O)ccc2c1 [Compound 15b]", "YES"],
  ["COc1c(OC)c(OC)c2c(=O)c(-c3ccc4cc(O)ccc4c3)c(C)oc2c1CC(C)C [Compound 15d]", "NO"],
  ["Cc1oc2c(CC(C)C)c(O)c(O)c(O)c2c(=O)c1-c1ccc2c(C(C)C)c(O)ccc2c1", "YES"],
  ["Cc1cc(=O)c2c(O)c(O)c(O)c(CC(C)C)c2o1 [Compound 15j]", "NO"],
  ["CCOc1ccc2cc(-c3c(C)oc4c(CC(C)C)c(OC)c(OC)c(OC)c4c3=O)ccc2c1 [Compound 15e]", "NO"]
]}
